# target.of.assay: sodium ion channel of Trpm5 bitter receptor (Mus musculus)
# Construct: Put the removed tongue in a 2 ml EP tube, add 1-1.5 ml of 0.25% trypsin solution; from tissue; host or cells: cells dissociated with trypsin from mouse tongue
# measurement.description: Immunofluorescence experiment of sodium ion channels in mouse tongue cells stimulated with bitter agent
# Type: cell-based, mice
# measurement.parameters: Bitterant 60 s (2% metronidazole solution)
readout.name: average value of fluorescence brightness

molecule CC(C)=CCCC(C)=CC=O , average value of fluorescence brightness observed: 29.766

molecule NCCCC(=O)O , average value of fluorescence brightness observed: 27.287

molecule CC1CCC(C(C)C)C(=O)C1 (stereo not shown) , average value of fluorescence brightness observed: 25.415

molecule CC1CCC(C(C)C)C(OC(=O)C(C)O)C1 (stereo not shown) [Menthyl lactate] , average value of fluorescence brightness observed: 28.141

----------
# target.of.assay: sodium ion channel of Trpm5 bitter receptor (Mus musculus)
# Construct: Put the removed tongue in a 2 ml EP tube, add 1-1.5 ml of 0.25% trypsin solution; from tissue; host or cells: cells dissociated with trypsin from mouse tongue
# Sequence (Q9JJH7 1-1158): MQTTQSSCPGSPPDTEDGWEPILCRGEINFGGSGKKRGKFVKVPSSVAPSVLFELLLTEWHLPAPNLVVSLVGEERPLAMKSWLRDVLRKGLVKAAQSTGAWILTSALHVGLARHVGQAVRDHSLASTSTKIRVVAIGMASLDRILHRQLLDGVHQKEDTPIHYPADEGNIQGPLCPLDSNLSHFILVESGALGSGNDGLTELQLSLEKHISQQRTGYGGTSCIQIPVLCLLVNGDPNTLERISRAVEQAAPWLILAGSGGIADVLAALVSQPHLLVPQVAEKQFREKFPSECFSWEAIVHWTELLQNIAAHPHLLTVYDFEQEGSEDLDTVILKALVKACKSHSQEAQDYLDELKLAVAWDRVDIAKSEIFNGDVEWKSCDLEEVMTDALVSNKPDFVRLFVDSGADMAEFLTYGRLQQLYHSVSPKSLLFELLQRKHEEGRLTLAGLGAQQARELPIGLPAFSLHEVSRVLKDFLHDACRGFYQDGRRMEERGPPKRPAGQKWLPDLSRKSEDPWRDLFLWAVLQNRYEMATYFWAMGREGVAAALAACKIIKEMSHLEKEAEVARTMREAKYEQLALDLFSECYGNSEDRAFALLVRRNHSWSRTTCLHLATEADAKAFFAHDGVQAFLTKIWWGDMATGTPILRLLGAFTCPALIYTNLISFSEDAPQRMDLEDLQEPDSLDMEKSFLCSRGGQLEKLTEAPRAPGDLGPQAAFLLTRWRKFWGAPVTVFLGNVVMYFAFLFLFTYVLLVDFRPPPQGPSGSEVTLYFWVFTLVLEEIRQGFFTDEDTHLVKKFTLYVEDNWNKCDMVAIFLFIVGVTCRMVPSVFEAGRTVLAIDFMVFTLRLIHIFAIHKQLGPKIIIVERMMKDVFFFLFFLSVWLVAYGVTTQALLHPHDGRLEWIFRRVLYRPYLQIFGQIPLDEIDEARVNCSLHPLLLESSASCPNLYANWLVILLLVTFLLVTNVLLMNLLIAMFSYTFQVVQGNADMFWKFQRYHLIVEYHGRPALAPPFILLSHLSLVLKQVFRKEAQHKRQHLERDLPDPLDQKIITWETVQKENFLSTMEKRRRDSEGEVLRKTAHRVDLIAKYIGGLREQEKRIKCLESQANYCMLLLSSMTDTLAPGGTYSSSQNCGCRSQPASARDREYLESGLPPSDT
# measurement.description: Immunofluorescence experiment of sodium ion channels in mouse tongue cells stimulated with bitter agent
# Assay type: cell-based, mice
# measurement.parameters: Addition of drugs
readout.name: average value of fluorescence brightness

compound CC(C)=CCCC(C)=CC=O [Citral, citral] , average value of fluorescence brightness observed: 29.943

compound CC1CCC(C(C)C)C(OC(=O)C(C)O)C1 (centres unmarked) [Menthyl lactate] , average value of fluorescence brightness observed: 28.425

compound CCCCC[C@H](O)CC(=O)CCc1ccc(O)c(OC)c1 [Gingerol, 6-gingerol] , average value of fluorescence brightness observed: 25.244

compound CC(C)[C@@H]1CC[C@@H](C)C[C@H]1OC(=O)CCC(=O)O [Menthyl succinate] , average value of fluorescence brightness observed: 28.92

compound C=CCc1ccc(OC(C)=O)c(OC)c1 [Eugenol acetate] , average value of fluorescence brightness observed: 28.103
